Entries and their protein stability index values follow.
B1: VENTX (parent)
chain: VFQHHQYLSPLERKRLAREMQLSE

- Variants of: B1
- testDetails: protein stability index of a GFP-peptide fusion (GPS, HEK-293T) (PSI 1-6); higher = more stable;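 also: lentivirally expressed fusions sorted by FACS into six bins by GFP to DsRed ratio, PSI derived from sequencing read proportions per bin multiplied by bin number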
- conditionParameters: c terminus: a fixed tail appended
Respond using a number only.

# annotated cases, reported protein stability index shown
seqText: WFQHHQYLSPLERKRLAREMQLSE [V1W]
protein stability index: 1.92
--
seqText: VFQHHQYLSPLERKRLAWEMQLSE [R18W]
protein stability index: 2.21
--
seqText: VFQHHQYLSPIERKRLAREMQLSE [L11I]
protein stability index: 2.4
--
seqText: VFQHHQYLSPLERKRLADEMQLSE [R18D]
protein stability index: 2.77
--
seqText: VFQHHQYLSPLERKRLMREMQLSE [A17M]
protein stability index: 2.32
--
seqText: VFQHHWYLSPLERKRLAREMQLSE [Q6W]
protein stability index: 2.17
--
seqText: VRQHHQYLSPLERKRLAREMQLSE [F2R]
protein stability index: 3.02
--
seqText: VFQHHQYLSPLERKRLAREMQWSE [L22W]
protein stability index: 1.96
--
seqText: GFQHHQYLSPLERKRLAREMQLSE [V1G]
protein stability index: 2.09
--
seqText: VNQHHQYLSPLERKRLAREMQLSE [F2N]
protein stability index: 2.97

In: Value lookup for protein stability index; key = VFQAHQYLSPLERKRLAREMQLSE [H4A]
Out: 3.37

In: Do the same for VFQHHQYLSPLERKRLALEMQLSE [R18L] please
Out: 2.33

In: Do the same for VFMHHQYLSPLERKRLAREMQLSE [Q3M] please
Out: 2.27

In: Do the same for HFQHHQYLSPLERKRLAREMQLSE [V1H] please
Out: 2.34

In: Do the same for VFWHHQYLSPLERKRLAREMQLSE [Q3W] please
Out: 1.79

In: Do the same for DFQHHQYLSPLERKRLAREMQLSE [V1D] please
Out: 2.83

In: Do the same for VFQHHQYLSFLERKRLAREMQLSE [P10F] please
Out: 1.91
